Task for the reader: assign each of the following compounds its reported GI50.
- System: M14 melanoma
- methodDescription: NCI tumour cell line growth inhibition, 48 h

# compoundSmiles, resultType, recordedMeasurement
rows = [
    ("Cn1ncnc1[C@@H]1c2n[nH]c(=O)c3cc(F)cc(c23)N[C@H]1c1ccc(F)cc1", "GI50", "> 100 µM"),
    ("COc1cc(/C=C/C(=O)c2cccc(-n3cc(-c4ccccc4)[nH]c3=O)c2)cc(OC)c1OC", "GI50", "1.35 µM"),
    ("O=C1NC(=O)C(c2c[nH]c3ccccc23)=C1c1c[nH]c2ccccc12", "GI50", "10.9 µM"),
]

Record GI50 per entry; entries follow.
1. CC(C)(C)CC(C)(C)c1ccc(OCCO)cc1
2. O=C(O)c1ccc(N(/C=C/C(=O)C(F)(F)F)Cc2ccc(Cl)cc2)cc1
3. COC(=O)c1c2c(c(C)[n+]([O-])c1C)C(=O)C(NCc1ccc(OC)cc1)=CC2=O
4. O=c1nc2n(-c3cccc(Cl)c3)c3ccc([N+](=O)[O-])cc3cc-2c(=O)[nH]1

["9.29 µg/mL", "22.7 µM", "1.81 µM", "6.55 µM"]

Hi! Can you tell me GI50 for each of these compounds?
1. CN(C)CCNC(=O)c1cc2c3cc(Cl)ccc3[nH]c2c2ncccc12
2. CCCCn1c(=O)[nH]c(N)c([C@@H]2c3c([nH]c(=O)n(CCCC)c3=O)Oc3ccc4ccccc4c32)c1=O
3. O=C(N/N=C/c1ccc(Cl)cc1)c1ccc(NC(=O)c2ccccn2)cc1

["1.7 µM", "1.92 µM", "56.8 µM"]

----------
Answer each item with its documented TGI.
- Test system: HOP-62 NSCLC
- methodDescription: NCI tumour cell line growth inhibition, 48 h
Numbers only, in µM.

# compound, unitsText, TGI
records = [
    ("O=C(O)c1ccc(N(/C=C/C(=O)C(F)(F)F)Cc2ccc(Cl)cc2)cc1", "µM", 65.3),
]

Recorded result, COc1cc(/C=C2\CC3C4CC=C5CC(OC(C)=O)CC[C@]5(C)C4CC[C@]3(C)C2=O)ccc1OCCN1CCCC1 (some centres undefined) , TGI: 23

----------
For each record, write down the corresponding TGI.
- Test system: 786-0 renal
- methodDescription: NCI tumour cell line growth inhibition, 48 h

# molecule, TGI
records = [
    ("CN1CCN(Cc2ccc(NC(=O)c3cncc(C#Cc4cnc(N)c5ncccc45)c3)cc2C(F)(F)F)CC1", "2.52 µM"),
    ("COc1cc2nc(-c3cccs3)nc(Nc3cccc([N+](=O)[O-])c3)c2cc1OC", "40.9 µM"),
    ("NC(N)=N/N=C\\c1c(-c2cccc([N+](=O)[O-])c2)nc2sccn12", "> 100 µM"),
    ("NS(=O)(=O)c1ccc(N(/C=C/C(=O)C(F)(F)F)CC(=O)c2ccc(F)cc2)cc1", "> 100 µM"),
    ("COC(=O)C(=O)C(C(=O)C(=O)Nc1ccc(Cl)c(Cl)c1)c1nc2ccc(C(=O)c3ccccc3)cc2[nH]c1=O (centres undefined)", "> 100 µM"),
    ("CCCCn1c(=O)[nH]c(N)c([C@@H]2c3c([nH]c(=O)n(CCCC)c3=O)Oc3ccc4ccccc4c32)c1=O", "4.41 µM"),
    ("COc1ccc2c(c1)/C(=C/c1c(O)[nH]c(=S)[nH]c1=O)C=N2", "> 100 µM"),
    ("CCCc1nnc2sc(COc3ccc(OCc4nn5c(CCC)nnc5s4)c(Cl)c3)nn12", "> 100 µM"),
]

Please report TGI for every entry that follows.
1. COc1cc(/C=C2\CC3C4CC=C5CC(OC(C)=O)CC[C@]5(C)C4CC[C@]3(C)C2=O)ccc1OCCN1CCCC1 (some centres undefined)
2. CCC(C)N1CN(c2ccccc2)C2(CCN(CC3COc4ccccc4O3)CC2)C1=O (centres undefined)
3. COC(=O)c1c(O)c(C#N)c2[nH]c3ccccc3n2c1=O

14 µM
35.5 µM
> 100 µM

----------
- System: U251 CNS
- methodDescription: NCI tumour cell line growth inhibition, 48 h
Provide the reported TGI of each item.
Answers are plain numbers, in µM.

# compoundSmiles, TGI, µM
records = [
    ("O=C1C=CC2(C=C1)O[C@H](COCc1ccccc1)[C@@H](COCc1ccccc1)O2", 4.02),
]

Here is the next item to consider.
The compound listed as `CC(=O)N1C=Cc2c(c(C)c3c([nH]c4ccccc43)c2C)C1` has a reported TGI of 19.4

----------
Record form. Attribute: TGI. Fill in for each entry.
- Tested on: SK-MEL-28 melanoma
- methodDescription: NCI tumour cell line growth inhibition, 48 h
One number for each entry, in µM.

# compound, unitsText, recordedMeasurement
measured = [
    ("CC(C)=CCc1cc2c(cc1O)C1=C(C(=O)C3=C(NCCS3(=O)=O)C1=O)C(C=C(C)C)O2 (stereo not given)", "µM", 9.84),
]

Batch request: TGI for each of the following compounds.
1. N=C(N)SCc1ccc2c(c1)S(=O)(=O)c1ccccc1O2
2. O=C1C=C(Nc2ccccc2)c2ccccc2C1=O
3. CC(=O)OCC1OC(n2c3c(c(-c4ccc(C)cc4)c(C#N)c2=S)C(=O)CC(C)(C)C3)C(OC(C)=O)C(OC(C)=O)C1OC(C)=O (stereo not given)

[33.1, 4.46, 66.3]

----------
- Tested on: PC-3 prostate
- methodDescription: NCI tumour cell line growth inhibition, 48 h
Exercise: for every item that follows, state its recorded TGI.

A selection of reference data follows.
# molecule, tgt, resultType, recordedMeasurement
data = [
    ("Cc1cn2cc(-c3cccs3)nc2s1", "PC-3 prostate", "TGI", "> 100 µM"),
    ("CC1=C(O)C(=O)C=C2C1=CC=C1[C@@]2(C)CC[C@@]2(C)C3C[C@@H](C)C(=O)[C@@H](O)[C@]3(C)CC[C@]12C (some centres undefined)", "PC-3 prostate", "TGI", "4.23 µM"),
    ("CCOc1ccc(N(C)c2ccc(/C=C/C3=[N+](C)c4ccccc4C3(C)C)cc2)cc1", "PC-3 prostate", "TGI", "0.793 µM"),
    ("COc1ccc2c(-c3csc(-c4c[nH]c5ccc(Br)cc45)n3)c[nH]c2c1", "PC-3 prostate", "TGI", "79.3 µM"),
    ("CCOc1ccc(/C=C2\\N=C(c3ccccc3)OC2=O)cc1", "PC-3 prostate", "TGI", "> 100 µM"),
]

For each listed entry, give its TGI.
1. CCN(Cc1ccc(OC)cc1)c1ccc(CO)c(Cl)c1
2. O=c1[nH]c2ccccc2n1C1CCNCC1
3. COc1cc2c(c3oc(-c4ccc(O)cc4)c(O)c(=O)c13)CCC(C)(C)O2
4. COc1cc(CN=c2nc(N(C)C)ss2)cc(OC)c1OC
5. CCOC(=O)c1noc2c1CCc1c-2cn(Cc2ccc(OC)cc2)c1-c1cc(OC)c(OC)c(OC)c1
6. Brc1ccc(C2=NCSC(c3ccc(Br)cc3)=N2)cc1

1: > 81.8 µM; 2: > 100 µM; 3: > 100 µM; 4: > 10 µM; 5: > 100 µM; 6: 56.7 µM

Please look at the items below and tell me TGI for each one, in order.
1. C/C=C1/CC(C(=O)OC)N(C(=O)OCc2ccccc2)C1=S (centres undefined)
2. CN(C)CCNc1ccc(NCC[N+](C)(C)Cc2ccc([N+](=O)[O-])cc2)c2c1C(=O)c1c(O)ccc(O)c1C2=O
3. C=CCN1C(=O)CC2[C@@H]3CCc4cc(O)ccc4C3CC[C@]2(C)C1=O (some centres undefined)
4. O=C1NN2CC(c3ccccc3)=NN=C2c2ccccc21
5. O=S(=O)(NCCCNc1cc(-c2cn(-c3ccccc3)nc2-c2cccc(O)c2)ccn1)c1ccc(C(F)(F)F)cc1
6. CN1CCN(Cc2ccc(NC(=O)c3cncc(C#Cc4cnc(N)c5ncccc45)c3)cc2C(F)(F)F)CC1
7. O=C(N/N=C/c1ccc(Cl)cc1)c1ccc(NC(=O)c2ccccn2)cc1
8. COc1ccc2c(c1)/C(=C/c1c(O)[nH]c(=S)[nH]c1=O)C=N2

["> 100 µM", "> 100 µM", "> 10 µM", "33.8 µM", "4.57 µM", "16.9 µM", "> 100 µM", "> 100 µM"]

Value sought for every listed molecule: TGI.
1. N#CC(C#N)=c1c(=O)c2c3ccccc3cc3cccc1c32
2. Cc1cc(I)cc(CNCCN(C)C)c1O
3. C=CCc1cccc(C=O)c1O
4. CC1(C)N=C(N)N=C(N)N1c1ccc(OCCCNC(=O)Nc2ccc(S(=O)(=O)F)cc2)c(Cl)c1
5. CC(=O)OCC1OC(n2c3c(c(-c4ccc(C)cc4)c(C#N)c2=S)C(=O)CC(C)(C)C3)C(OC(C)=O)C(OC(C)=O)C1OC(C)=O (centres undefined)
6. CC[C@@H]1/C=C/C=C/C[C@H](C)[C@@H](O)[C@@H](C)C(=O)[C@H](C)[C@@H](O)[C@H](C)C(=O)[C@H](C)[C@@H](O)[C@H](C)/C=C/C(=O)O[C@H]2[C@@H](C)[C@@H](CC1)O[C@@]1(CC[C@@H](C)[C@@H](CC(C)O)O1)[C@@H]2C (some centres undefined)
7. Clc1ccc(OCC2NC3CCC2CC3)cn1 (centres undefined)
8. O=C(c1ccc2ccccc2c1)C1(I)S(=O)(=O)OCCOS1(=O)=O

1: > 100 µM; 2: > 100 µM; 3: > 100 µM; 4: > 73 µM; 5: 60 µM; 6: 12.3 µM; 7: 78.3 µM; 8: > 100 µM

Below is a list of molecules. For each, state its recorded TGI.
1. O=C(O)/C=C/c1ccc(O)c(O)c1
2. CC(=O)N1C=Cc2c(c(C)c3c([nH]c4ccccc43)c2C)C1

> 100 µM
19.6 µM
